Biological target: N-terminal Xaa-Pro-Lys N-methyltransferase 1 (Homo sapiens)
Assay: Inhibition of full length NTMT1 (1 to 222 residues) (unknown origin) expressed in Escherichia coli BL21 (DE3) using GPKRIA as substrate preincubated for 10 mins followed by substrate addition measured after 15 mins by microplate reader method
ENDPOINT LABEL: pIC50
Recall that pIC50 is obtained by taking minus log10 of the concentration measured in molar.

Illustrative cases are given below, each with its answer.
# COMPOUND STRUCTURE STRING, pIC50
records = [
    ("CC(C)(NC(=O)O[C@@H]1CN2CCC1CC2)c1csc(-c2ccccc2)n1", 5.57),
    ("Cc1ccc(-c2nc(C(C)(C)NC(=O)O[C@@H]3CN4CCC3CC4)cs2)cc1", 5.77),
]

Now look at this entry.
# get_value(readout='pIC50', item= CC(C)(NC(=O)O[C@@H]1CN2CCC1CC2)c1csc(-c2ccc(Br)cc2)n1 ) 5.82

----------
Target: N-terminal Xaa-Pro-Lys N-methyltransferase 1 (Homo sapiens, UniProt Q9BV86)
ENDPOINT LABEL: pKd
Entry type: numeric. Quantity: pKd, the -log10 of concentration in molar units.

pKd lookup needed for CC(C)(NC(=O)O[C@@H]1CN2CCC1CC2)c1csc(-c2ccc(F)cc2)n1 , thanks. 6.80

----------
Target: N-terminal Xaa-Pro-Lys N-methyltransferase 1 (Homo sapiens, UniProt Q9BV86)
Sequence (Q9BV86 whole entry): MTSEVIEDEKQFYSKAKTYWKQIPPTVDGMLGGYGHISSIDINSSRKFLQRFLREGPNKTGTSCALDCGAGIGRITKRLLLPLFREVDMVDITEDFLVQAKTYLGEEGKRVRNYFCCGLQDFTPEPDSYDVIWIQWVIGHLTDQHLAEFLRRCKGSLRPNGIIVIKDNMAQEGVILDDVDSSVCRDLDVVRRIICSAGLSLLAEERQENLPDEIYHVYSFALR
Assay: Inhibition of full length NTMT1 (1 to 222 residues) (unknown origin) expressed in Escherichia coli BL21 (DE3) using GPKRIA as substrate preincubated for 10 mins followed by substrate addition measured after 15 mins by microplate reader method
pIC50: −log10 of the molar value.
ENDPOINT LABEL: pIC50

# COMPOUND STRUCTURE STRING, pIC50
rows = [
    ("CC(C)OC(=O)NC(C)(C)c1csc(-c2ccc(F)cc2)n1", "< 4.00"),
    ("CC(C)(NC(=O)O[C@@H]1CN2CCC1CC2)c1csc(-c2ccc(/C=C/C(=O)O)cc2)n1", "< 4.00"),
]

Need pIC50 of CC(C)(NC(=O)OC1CCCCC1)c1csc(-c2ccc(F)cc2)n1 , thanks. < 4.00

----------
Target: N-terminal Xaa-Pro-Lys N-methyltransferase 1 (Homo sapiens, UniProt Q9BV86)
ENDPOINT LABEL: pKd
Entry type: numeric. Quantity: pKd, the -log10 of concentration in molar units.

Reported pKd, compound CC(C)(NC(=O)O[C@@H]1CN2CCC1CC2)c1csc(-c2ccc(F)cc2)n1 : ____ 7.49
